Attribution: patent US20080193411A1

Tested on: HCV replication
PROTOCOL_NOTES: HCV replicon assay (luciferase), ET (Huh-lucubineo-ET) cell line
Assay type: cell-based
MEASUREMENT_CONDITIONS: Hepatitis C virus; tested at 10 μM; ET (Huh-lucubineo-ET) replicon cells; luciferase activity 48-72 hours; relative to no compound control
Recorded inhibition at 10 µM by entry
REPORTED_PROPERTY: inhibition at 10 µM (%)

molecule=O=C(Cc1cccc(-c2ccc3nc([C@@H]4CCCN4C(=O)OCc4ccccc4)[nH]c3c2)c1)NC1CC1 system="HCV replication" reported_property="inhibition at 10 µM" numeric_result=97
molecule="O=C(NC1CC1)c1ccc(-c2ccc([C@@H]3CCCN3C(=O)OCc3ccccc3)cc2)cc1 (stereo in doubt)" system="HCV replication" reported_property="inhibition at 10 µM" numeric_result=53.1
molecule=O=C(OCc1ccccc1)N1CCC[C@H]1c1nc2ccc(-c3ccc4[nH]ccc4c3)cc2o1 system="HCV replication" reported_property="inhibition at 10 µM" numeric_result=49.6
molecule=O=C(NC1CC1)c1ccc(-c2ccc3nc([C@@H]4CCCN4C(=O)OCc4ccccc4)oc3c2)cc1 system="HCV replication" reported_property="inhibition at 10 µM" numeric_result=50.5
molecule=O=C(OCc1ccccc1)N1CCC[C@H]1c1nc2ccc(-c3cc([N+](=O)[O-])c4[nH]ccc4c3)cc2[nH]1 system="HCV replication" reported_property="inhibition at 10 µM" numeric_result=97.5
molecule=O=C(Nc1cccc(-c2ccc3nc([C@@H]4CCCN4C(=O)OCc4ccccc4)[nH]c3c2)c1)C1CC1 system="HCV replication" reported_property="inhibition at 10 µM" numeric_result=97.6

====

System: HCV replication
PROTOCOL_NOTES: HCV replicon assay (luciferase), ET (Huh-lucubineo-ET) cell line
Format: cell-based
MEASUREMENT_CONDITIONS: Hepatitis C virus; tested at 10 μM; ET (Huh-lucubineo-ET) replicon cells; luciferase activity 48-72 hours; relative to no compound control
Entries annotated with measured inhibition at 10 µM
REPORTED_PROPERTY: inhibition at 10 µM (%)

test_smiles=O=C(NC1CC1)c1ccc(-c2csc(NC[C@@H]3CCCN3C(=O)OCc3ccccc3)n2)cc1 reported_property="inhibition at 10 µM" display_unit=% numeric_result=44
test_smiles=O=C(Cc1ccc(-c2ccc3nc([C@@H]4CCCN4C(=O)OCc4ccccc4)[nH]c3c2)cc1)NC1CC1 reported_property="inhibition at 10 µM" display_unit=% numeric_result=64.5
test_smiles=O=C(OCc1ccccc1)N1CCC[C@H]1c1nc2ccc(-c3ccc4c(c3)OCO4)cc2[nH]1 reported_property="inhibition at 10 µM" display_unit=% numeric_result=25.8
test_smiles=O=C(NCc1cccc(-c2ccc3nc([C@@H]4CCCN4C(=O)OCc4ccccc4)[nH]c3c2)c1)C1CC1 reported_property="inhibition at 10 µM" display_unit=% numeric_result=99.4
test_smiles=O=C(OCc1ccccc1)N1CCC[C@H]1c1nc2ccc(-c3ccc4[nH]c5ccccc5c4c3)cc2[nH]1 reported_property="inhibition at 10 µM" display_unit=% numeric_result=98.2
test_smiles=O=C(OCc1ccccc1)N1CCC[C@H]1c1nc2ccc(-c3ccco3)cc2[nH]1 reported_property="inhibition at 10 µM" display_unit=% numeric_result=66.8
test_smiles=O=C(NC1CC1)c1ccc(-c2cccc(C#C[C@@H]3CCCN3C(=O)OCc3ccccc3)c2)cc1 reported_property="inhibition at 10 µM" display_unit=% numeric_result=48.4
